Answer each item with its documented IC50.
# Test system: 876862-298-R-J1-PDC complex spheroids, viability % test/control;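 further: spheroids exposed to drugs for 7 days before readout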
# assayDetails: Anticancer human tumor 876862-298-R-J1-PDC patient-derived endometrial carcinoma cell line growth inhibition [CLK]
# assayContext: curve of first compound; second compound 10 µM
# Source text: A high-throughput screen of multi-cell type tumor spheroids was designed to identify active combinations of […] and targeted small molecules. Complex spheroids include a stromal component modeled by human endothelial cells (HUVEC) and fibroblasts modeled by human mesenchymal stem cells (MSCs). […] Compounds. […] If the clinical Cmax for an agent had not been determined, the highest concentration tested was 10 microM. […]

Cn1ncnc1[C@H]1c2n[nH]c(=O)c3cc(F)cc(c23)N[C@@H]1c1ccc(F)cc1 + CN1CCN(c2cc(C(=O)Nc3cc4cc(-c5cnn(C)c5)ccc4cn3)ccn2)CC1; < 0.000316 µM
Nc1ccccc1NC(=O)c1ccc(CNC(=O)OCc2cccnc2)cc1 + CN1CCN(c2cc(C(=O)Nc3cc4cc(-c5cnn(C)c5)ccc4cn3)ccn2)CC1; < 0.0316 µM
CCCS(=O)(=O)Nc1ccc(F)c(C(=O)c2c[nH]c3ncc(-c4ccc(Cl)cc4)cc23)c1F + CNC(=O)c1ccc(Nc2nc(OC3CCCC3)c3c(-c4ccc5nc(C)oc5c4)c[nH]c3n2)c(OC)c1; < 0.0316 µM
CC1(C)CCC(CN2CCN(c3ccc(C(=O)NS(=O)(=O)c4ccc(NCC5CCOCC5)c([N+](=O)[O-])c4)c(Oc4cnc5[nH]ccc5c4)c3)CC2)=C(c2ccc(Cl)cc2)C1 + CNC(=O)c1ccc(Nc2nc(OC3CCCC3)c3c(-c4ccc5nc(C)oc5c4)c[nH]c3n2)c(OC)c1; < 0.0316 µM

Quick request: IC50 for each listed item, please.
1. CC(C)CC(NC(=O)C(Cc1ccccc1)NC(=O)c1cnccn1)B(O)O (stereo unspecified) + CN1CCN(c2cc(C(=O)Nc3cc4cc(-c5cnn(C)c5)ccc4cn3)ccn2)CC1
2. CCCS(=O)(=O)Nc1ccc(F)c(C(=O)c2c[nH]c3ncc(-c4ccc(Cl)cc4)cc23)c1F + CN1CCN(c2cc(C(=O)Nc3cc4cc(-c5cnn(C)c5)ccc4cn3)ccn2)CC1
3. Nc1ccn(C2OC(CO)C(O)C2(F)F)c(=O)n1 (stereo unspecified) + CN1CCN(c2cc(C(=O)Nc3cc4cc(-c5cnn(C)c5)ccc4cn3)ccn2)CC1

[A]
1: < 0.000949 µM; 2: < 0.0316 µM; 3: < 0.0316 µM

For the 3 compounds below, give their IC50 values.
1. C=C(F)C(=O)N1CCN(c2nc(OCC3CCCN3C)nc3c2CCN(c2cccc4cccc(Cl)c24)C3)CC1CC#N (stereo unspecified) + CN1CCN(c2cc(C(=O)Nc3cc4cc(-c5cnn(C)c5)ccc4cn3)ccn2)CC1
2. O=c1[nH]cc(F)c(=O)[nH]1 + CNC(=O)c1ccc(Nc2nc(OC3CCCC3)c3c(-c4ccc5nc(C)oc5c4)c[nH]c3n2)c(OC)c1
3. COc1ccc([C@@H](O)c2cc(-c3ncnc4cc(N5CCOCC5)ccc34)c(F)cc2Cl)nn1 + CNC(=O)c1ccc(Nc2nc(OC3CCCC3)c3c(-c4ccc5nc(C)oc5c4)c[nH]c3n2)c(OC)c1

[A]
["< 0.0316 µM", "< 0.0316 µM", "< 0.0316 µM"]

[Q] Item C=CC(=O)N1CCN(c2nc(=O)n(-c3c(C)ccnc3C(C)C)c3nc(-c4c(O)cccc4F)c(F)cc23)C(C)C1 (stereo unspecified) + CNC(=O)c1ccc(Nc2nc(OC3CCCC3)c3c(-c4ccc5nc(C)oc5c4)c[nH]c3n2)c(OC)c1 : provide IC50
[A] < 0.0316 µM
